I'd appreciate it if you could supply Population Healthy Nuclei (%) values for the items below.
Tested on: Fibroblast
assay: Multiplex assay against human fibroblast
Assay type: toxicity, cell-based
conditions: 24 h, 1 µM, compound concentration 1 uM, replicate 1
Write down the numeric answer in % and omit the unit.

## Task Data request, read-out Population Healthy Nuclei (%), for Cc1ccc(F)cc1C(=O)Nc1ccc(C(=O)N2Cc3cccn3Cc3ccccc32)c(Cl)c1
## Result 73

## Task Further, for C[C@H]1[C@H]2CC[C@H]3[C@@H]4CC=C5C[C@@H](N(C)C)CC[C@]5(C)[C@H]4CC[C@]23CN1C ?
## Result 73

## Task Further, for CN(C)c1ccnc2sc3c(=O)n(N4CCCCCC4)cnc3c12 ?
## Result 67

## Task Further, for COc1c(C)cc(NC(=O)c2nn(Cc3ccc(F)cc3)c3c2CN(C(=O)c2ccc[nH]2)C[C@]3(C)C(N)=O)cc1C ?
## Result 61

## Task Further, for CCCC(CCC)C(=O)O ?
## Result 69

## Task Further, for Oc1c(CN2CCN(c3ccccn3)CC2)cc(Cl)c2cccnc12 ?
## Result 67

## Task Further, for CC[C@H]1OC(=O)[C@H](C)[C@@H](O[C@H]2C[C@@](C)(OC)[C@@H](O)[C@H](C)O2)[C@H](C)[C@@H](O[C@@H]2O[C@H](C)C[C@H](N(C)C)[C@H]2O)[C@@]2(C)CC(C)=C(O2)[C@H](C)[C@@H](O)[C@]1(C)O ?
## Result 69

## Task Further, for COc1cc(NC(=O)CCN2CCC(OC(=O)Nc3ccccc3-c3ccccc3)CC2)c(Cl)cc1CNC[C@H](O)c1ccc(O)c2[nH]c(=O)ccc12 ?
## Result 62

## Task Further, for CCCn1c(=O)c2[nH]c(C3CCCC3)nc2n(CCC)c1=O ?
## Result 77

## Task Further, for O=C1COc2nccc(-c3ccccc3F)c2CN1Cc1cc(C(F)(F)F)cc(C(F)(F)F)c1 ?
## Result 74

## Task Further, for COc1cc(C(=O)N(CCCc2ccccc2)Cc2ccc(CC(=O)O)cc2)cc(OC)c1C ?
## Result 77

## Task Further, for Cc1nc2ccc(Oc3ccc(F)cc3)cc2c(=O)n1C[C@H]1CCCN(C(C)C)C1.Cl ?
## Result 68

## Task Further, for COc1ccc2c(c1)C(C(=O)N(Cc1ccc(N(C)C)cc1)c1ccc(C(C)C)cc1)CCC2.Cl (stereo not drawn) ?
## Result 77

## Task Further, for CCOc1c2c(c(OCC)c3ncccc13)CN(c1ccc(CS(=O)(=O)NC(=O)Cc3ccccc3OC)cc1C)C2=O ?
## Result 67

## Task Further, for c1cc(OCCCN2CCCCC2)ccc1CN1CCCCC1 ?
## Result 66

## Task Further, for CC(C)(C)c1ccc(S(=O)(=O)Nc2ccc(Cl)cc2C(=O)c2cc[n+]([O-])cc2)cc1 ?
## Result 62

## Task Further, for CCCN1CCC[C@@H]2Cc3n[nH]cc3C[C@H]21.Cl [QUINPIROLE HYDROCHLORIDE] ?
## Result 64

## Task Further, for O=C(NCC(=O)N1CC[C@H](N[C@H]2CC[C@@](O)(c3ccc(-c4ncccn4)cn3)CC2)C1)c1cccc(C(F)(F)F)c1 ?
## Result 60

## Task Further, for CC1(COc2ccc3c(c2)ncn3-c2ccc3cccc(N4CCC(N)CC4)c3n2)COC1 ?
## Result 60

## Task Further, for Cl.Clc1ccc2nsnc2c1NC1=NCCN1 [TIZANIDINE HYDROCHLORIDE] ?
## Result 76

## Task Further, for O=S(=O)(c1ccccc1)c1cnc2c(N3CCNCC3)cccc2c1 [INTEPIRDINE] ?
## Result 72

## Task Further, for CN1CCN(c2nc3cc(C(F)(F)F)ccc3n3cccc23)CC1.O=C(O)/C=C\C(=O)O.O=C(O)/C=C\C(=O)O ?
## Result 72

## Task Further, for CC(=O)NCCc1c(Cc2ccccc2)[nH]c2ccccc12 ?
## Result 61
